- study-target: aldose reductase (Bos taurus, UniProt P16116)
- Construct: preparation of the enzyme from bovine lens; from tissue; host or cells: bovine lens
- assay-remarks: In vitro aldose reductase inhibition (modified Hayman and Kinoshita procedure, enzyme from bovine lens)
- Format: biochemical
- conditions-used: read-out: % Inhibition IN VITRO 10^-6 M
Please use fulfilled whenever inhibition at 1 µM is not below 90%, and not fulfilled whenever it is.

Illustrative cases are given below, each with its answer.
CCOC(=O)N(CC(=O)O)C(=O)c1c(Br)ccc2c(C(F)(F)F)c(OC)ccc12 [Example 9] = fulfilled
COC(=O)N(CC(N)=O)C(=O)c1c(F)ccc2c(C(F)(F)F)c(OC)ccc12 [Example 2] = not fulfilled
COC(=O)N(CC(=O)O)C(=O)c1c(F)ccc2c(C(F)(F)F)c(OC)ccc12 [Example 1] = fulfilled
CCOC(=O)N(CC(=O)O)C(=O)c1c(F)ccc2c(C(F)(F)F)c(OC)ccc12 [Example 3] = fulfilled

### Prompt Could you tell me if the measured inhibition at 1 µM of COC(=O)N(CC(=O)O)C(=O)c1c(Cl)ccc2c(C(F)(F)F)c(OC)ccc12 [Example 4] reaches 90% or more?
### Response fulfilled

###

- study-target: aldose reductase (Bos taurus, UniProt P16116)
- Construct: preparation of the enzyme from bovine lens; from tissue; host or cells: bovine lens
- assay-remarks: In vitro aldose reductase inhibition (modified Hayman and Kinoshita procedure, enzyme from bovine lens)
- Format: biochemical
- conditions-used: read-out: % Inhibition IN VITRO 10^-7 M
The following molecules are listed with their measured inhibition at 0.1 µM values.
Your answer is read as %, so omit the unit and give the number.

Worked examples, 3 molecules total:
CCOC(=O)N(CC(=O)O)C(=O)c1c(Br)ccc2c(C(F)(F)F)c(OC)ccc12 = 76
CCOC(=O)N(CC(=O)O)C(=O)c1c(F)ccc2c(C(F)(F)F)c(OC)ccc12 = 87
COC(=O)N(CC(=O)O)C(=O)c1c(OCC(F)(F)F)ccc2c(C(F)(F)F)c(OC)ccc12 = 83

So, `CCOC(=O)N(CC(=O)O)C(=O)c1c(OCC(F)(F)F)ccc2c(C(F)(F)F)c(OC)ccc12` ? Its inhibition at 0.1 µM was 78

So, `COC(=O)N(CC(=O)O)C(=O)c1c(Br)ccc2c(C(F)(F)F)c(OC)ccc12` ? Its inhibition at 0.1 µM was 77

So, `COC(=O)N(CC(=O)O)C(=O)c1c(Cl)ccc2c(C(F)(F)F)c(OC)ccc12` ? Its inhibition at 0.1 µM was 85

So, `CCOC(=O)N(CC(=O)O)C(=O)c1c(Cl)ccc2c(C(F)(F)F)c(OC)ccc12` ? Its inhibition at 0.1 µM was 79

So, `COC(=O)N(CC(=O)O)C(=O)c1c(F)ccc2c(C(F)(F)F)c(OC)ccc12` ? Its inhibition at 0.1 µM was 86

###

- study-target: aldose reductase (Bos taurus, UniProt P16116)
- Construct: preparation of the enzyme from bovine lens; from tissue; host or cells: bovine lens
- assay-remarks: In vitro aldose reductase inhibition (modified Hayman and Kinoshita procedure, enzyme from bovine lens)
- Format: biochemical
- conditions-used: read-out: % Inhibition IN VITRO 4 × 10^-8 M
Please use 1 whenever inhibition at 0.04 µM is not below 50%, and 0 whenever it is.

COC(=O)N(CC(=O)O)C(=O)c1c(Br)ccc2c(C(F)(F)F)c(OC)ccc12 = 1
COC(=O)N(CC(=O)O)C(=O)c1c(OCC(F)(F)F)ccc2c(C(F)(F)F)c(OC)ccc12 = 1
CCOC(=O)N(CC(=O)O)C(=O)c1c(F)ccc2c(C(F)(F)F)c(OC)ccc12 = 1
COC(=O)N(CC(=O)O)C(=O)c1c(Cl)ccc2c(C(F)(F)F)c(OC)ccc12 = 1
COC(=O)N(CC(=O)O)C(=O)c1c(F)ccc2c(C(F)(F)F)c(OC)ccc12 = 1
CCOC(=O)N(CC(=O)O)C(=O)c1c(Cl)ccc2c(C(F)(F)F)c(OC)ccc12 = 0
CCOC(=O)N(CC(=O)O)C(=O)c1c(Br)ccc2c(C(F)(F)F)c(OC)ccc12 = 1

### Prompt Could you tell me if the measured inhibition at 0.04 µM of `CCOC(=O)N(CC(=O)O)C(=O)c1c(OCC(F)(F)F)ccc2c(C(F)(F)F)c(OC)ccc12` reaches 50% or more?
### Response 0
